compounds and their reported MIC
system: E. coli HA165

[
  {
    "Compound": "C[C@H](C(=O)NCCCN(CCCN)CCCN)[C@H]1CC[C@H]2[C@@H]3CC=C4C[C@@H](O)CC[C@]4(C)[C@H]3CC[C@]12C",
    "Endpoint Result": "16 µg/mL"
  },
  {
    "Compound": "CC(=O)O[C@H]1C[C@@]2(C)C(CCC3[C@@]4(C)CC[C@@H](OS(=O)(=O)O)[C@@H](C)C4CC[C@@]32C)[C@@H]1[C@H](CCCC(C)C)C(=O)NCCN(CCN)CCN (some centres unmarked)",
    "Endpoint Result": "16 µg/mL"
  },
  {
    "Compound": "CC(=O)O[C@H]1C[C@@]2(C)C(C[C@@H](O)C3[C@@]4(C)CC[C@H](O)[C@@H](C)C4CC[C@@]32C)[C@@H]1[C@H](CCCC(C)C)C(=O)NCCN(CCN)CCN (some centres unmarked)",
    "Endpoint Result": "64 µg/mL"
  },
  {
    "Compound": "CC(=O)O[C@H]1C[C@@]2(C)C(CCC3[C@@]4(C)CC[C@@H](OS(=O)(=O)O)[C@@H](C)C4CC[C@@]32C)[C@@H]1[C@H](CCCC(C)C)C(=O)NCCCN(CCCN)CCCN (some centres unmarked)",
    "Endpoint Result": "64 µg/mL"
  }
]

Problem: Would you mind telling me what MIC value was observed for CC(C)CCCC(C(=O)NCCN(CCN)CCN)[C@@H]1CC[C@@]2(C)C1C[C@@H](O)C1[C@@]3(C)CC[C@@H](O)[C@@H](C)C3CC[C@@]12C (some centres unmarked) ?
Result: 4 µg/mL

* * *

test system: S. aureus CJ200
MIC: recorded values
The answer should read as a number with its unit following.

Solved cases below.
[
  {
    "Compound": "CC(=O)O[C@H]1C[C@@]2(C)C(C[C@@H](O)C3[C@@]4(C)CC[C@H](O)[C@@H](C)C4CC[C@@]32C)[C@@H]1[C@H](CCCC(C)C)C(=O)NCCN(CCN)CCN (some centres unmarked)",
    "Endpoint Result": "16 µg/mL"
  },
  {
    "Compound": "CC(=O)O[C@H]1C[C@@]2(C)C(CCC3[C@@]4(C)CC[C@@H](OS(=O)(=O)O)[C@@H](C)C4CC[C@@]32C)[C@@H]1[C@H](CCCC(C)C)C(=O)NCCN(CCN)CCN (some centres unmarked)",
    "Endpoint Result": "16 µg/mL"
  },
  {
    "Compound": "CC(C)CCCC(C(=O)NCCN(CCN)CCN)[C@@H]1CC[C@@]2(C)C1C[C@@H](O)C1[C@@]3(C)CC[C@@H](O)[C@@H](C)C3CC[C@@]12C (some centres unmarked)",
    "Endpoint Result": "1 µg/mL"
  },
  {
    "Compound": "C[C@H](CCC(=O)NCCN(CCN)CCN)[C@H]1CC[C@H]2[C@@H]3CC[C@@H]4C[C@H](O)CC[C@]4(C)[C@H]3[C@H](O)C[C@]12C",
    "Endpoint Result": "16 µg/mL"
  },
  {
    "Compound": "CC(=O)O[C@H]1C[C@@]2(C)C(C[C@@H](O)C3[C@@]4(C)CC[C@@H](O)[C@@H](C)C4CC[C@@]32C)[C@@H]1[C@H](CCCC(C)C)C(=O)NCCN(CCN)CCN (some centres unmarked)",
    "Endpoint Result": "4 µg/mL"
  },
  {
    "Compound": "CC(C)CCCC(C(=O)NCCN(CCN)CCN)[C@H]1CC[C@@]2(C)C1CCC1[C@@]3(C)CC[C@@H](O)[C@@H](C)C3CC[C@@]12C (some centres unmarked)",
    "Endpoint Result": "1 µg/mL"
  },
  {
    "Compound": "CC(=O)O[C@H]1C[C@@]2(C)C(CCC3[C@@]4(C)CC[C@@H](OS(=O)(=O)O)[C@@H](C)C4CC[C@@]32C)[C@@H]1[C@H](CCCC(C)C)C(=O)NCCCN(CCCN)CCCN (some centres unmarked)",
    "Endpoint Result": "4 µg/mL"
  },
  {
    "Compound": "CC(C)CCCC(C(=O)NCCCN(CCCN)CCCN)[C@H]1CC[C@@]2(C)C1CCC1[C@@]3(C)CC[C@@H](O)[C@@H](C)C3CC[C@@]12C (some centres unmarked)",
    "Endpoint Result": "1 µg/mL"
  },
  {
    "Compound": "C/C(=C\\C(=O)OCCCCCCCCC(=O)O)C[C@@H]1OC[C@H](C[C@@H]2O[C@H]2[C@@H](C)[C@H](C)O)[C@@H](O)[C@H]1O [Mupirocin, mupirocin, reference compound]",
    "Endpoint Result": "1 µg/mL"
  },
  {
    "Compound": "CC(C)CCCC(C(=O)NCCN(CCN)CCN)C1=C2C[C@@H](O)C3[C@@]4(C)CC[C@@H](O)[C@@H](C)C4CC[C@]3(C)[C@@]2(C)CC1 (some centres unmarked)",
    "Endpoint Result": "16 µg/mL"
  }
]

Problem: Could you share which MIC value was measured for CC(=O)NC[C@H]1CN(c2ccc(N3CCOCC3)c(F)c2)C(=O)O1 [Linezolid, linezolid, reference compound] ?
Result: 4 µg/mL

The reported measurements were obtained from patent US20050256093A1.
